Assay: cytotoxicity in HPDE-C7 cells, cell-based, fluorescence, HTS (AID 430);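 also: cells exposed to compound for 48 hours before viability readout; 0% = vehicle and 100% = reference cytotoxic drug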
Conditions: HPDE-C7 pancreatic duct cells viability, at 10 µM, active compounds read high
Hit rate of the full screen: of about 63,000 compounds, about 1,100 (1.7%) were called active. Shown is part of a subset that was picked to be rich in actives. Measured potencies and affinities stand elsewhere.
Recorded cytotoxicity values for a group of molecules are listed next.

molecule	measureUnit	cytotoxicity
O=C(O)c1oc2ccc(Br)cc2c1-n1cccc1	%	57.8
O=C(O)C(CC(=O)N1CCOCC1)NCc1ccccc1 (stereo unspecified)	%	5.6
O=C(O)c1oc2ccccc2c1-n1cccc1	%	9.5
Cc1cc(C)c2c(c1)-c1c(ssc1=S)C(C)(C)N2C(=O)CSc1nncn1C	%	56.7
CCOC(=O)Cn1nnnc1C(CC)N(Cc1cccs1)Cc1cc2cc(C)ccc2[nH]c1=O (stereo unspecified)	%	7.5
Cc1ccc2c(c1)N(C(=O)CSc1nncn1C)C(C)(C)c1ssc(=S)c1-2	%	14.3
CCOc1ccc2[nH]c(=O)c(CN(Cc3cccs3)C(CC)c3nnnn3C(C)(C)CC)cc2c1 (stereo unspecified)	%	59
OCCNCC(O)Cn1ccc2ccccc21 (stereo unspecified)	%	-15.1
Cc1ccc2c(c1)-c1c(ssc1=S)C(C)(C)N2C(=O)CSc1nncn1C	%	-1.2
Cc1ccc2cc(CN(Cc3ccc(F)cc3)Cc3nnnn3C3CCCC3)c(=O)[nH]c2c1	%	23.4
COc1ccc(CN2C(=O)CCC2(C)C(=O)NC2CCCCC2)c(OC)c1 (stereo unspecified)	%	-3.1

Where do these numbers come from? They come from PubChem BioAssay AID430.
